Data provenance: patent US8227511B2

target: CETP (Homo sapiens, UniProt P11597); construct: CETP is obtained in partially purified form from human plasma by differential centrifugation and column chromatography and used for the test; from tissue; host or cells: human plasma; assay: CETP fluorescence test with enriched CETP; format: biochemical; conditions: enriched CETP fraction from human plasma; transfer of fluorescent cholesterol ester between liposomes; 37° C. for 4 h
Sequence (P11597 18-493): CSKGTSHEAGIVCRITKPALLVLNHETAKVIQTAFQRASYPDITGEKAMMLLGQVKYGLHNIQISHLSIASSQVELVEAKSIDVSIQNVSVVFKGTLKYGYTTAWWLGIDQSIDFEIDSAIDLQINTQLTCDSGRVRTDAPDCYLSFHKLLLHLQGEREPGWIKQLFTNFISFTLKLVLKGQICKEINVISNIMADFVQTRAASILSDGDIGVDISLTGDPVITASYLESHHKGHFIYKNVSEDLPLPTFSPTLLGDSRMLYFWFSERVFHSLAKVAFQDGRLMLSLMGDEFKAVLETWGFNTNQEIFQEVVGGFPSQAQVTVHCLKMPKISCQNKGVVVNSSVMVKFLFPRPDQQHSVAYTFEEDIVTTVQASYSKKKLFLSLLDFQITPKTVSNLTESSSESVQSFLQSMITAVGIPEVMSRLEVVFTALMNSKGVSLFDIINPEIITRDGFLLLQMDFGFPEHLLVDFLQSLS
For each of the compounds below, state its IC50.
Numbers only, in nM.

Using the record for CC(C)c1cc2c(c(-c3ccc(F)cc3)c1Cc1ccc(OC(F)(F)F)cc1)[C@@H](O)CC1(CCC1)O2 [Example 41] , report its IC50.
19

Item: CC(C)c1cc2c(c(-c3ccc(F)cc3)c1[C@@H](O)c1ccc(C(F)(F)F)cc1)[C@@H](O)CC(C)(C)O2 [Example 5]
35

Item: CC(C)c1cc2c(c(-c3ccc(F)cc3)c1Cc1ccc(C(F)(F)F)cc1)[C@@H](O)CC(C)(C)O2 [Example 9]
90

Item: CC(C)c1cc2c(c(C3CCCC3)c1Cc1ccc(C(F)(F)F)cc1)[C@@H](O)CC(C)(C)O2 [Example 26]
48

Shifting focus to the compound that follows.
Using the record for CC(C)c1cc2c(c(C3CCCC3)c1[C@@H](O)c1ccc(C(F)(F)F)cc1)[C@@H](O)CC(C)(C)O2 [Example 24] , report its IC50.
30
